Species on record: Mus musculus
Assay: Ability to hemolyze ICR mouse RBCs at 1 mg/mL using microtiter red blood cell hemolysis assay.
Hemolytic activity values by entry
// units = %; emit number, no label

substance_smiles	measurement
CCCCCCCCCCCCC[C@H](CC(=O)N[C@@H](C(=O)N[C@H](C)C(=O)N[C@@H](Cc1ccc(O)cc1)C(=O)N[C@H](C(=O)N1C[C@H](O)C[C@H]1C(=O)N[C@@H](C(=O)N[C@H](C(=O)N1CC[C@H](O)[C@H]1C(=O)N[C@H](C(=O)NCC(=O)N[C@@H](C(N)=O)[C@@H](C)O)[C@H](O)CC(N)=O)[C@@H](C)O)[C@@H](C)O)C(C)C)[C@@H](C)O)OC(=O)[C@@H](C)CCCNC(C)=O	5

Input line: Tell us which Hemolytic activity value is on record for CCCCCCCCCCCCC[C@H](CC(=O)N[C@@H](C(=O)N[C@H](C)C(=O)N[C@@H](Cc1ccc(O)c(NC(=O)[C@H](N)Cc2c[nH]cn2)c1)C(=O)N[C@H](C(=O)N1C[C@H](O)C[C@H]1C(=O)N[C@@H](C(=O)N[C@H](C(=O)N1CC[C@H](O)[C@H]1C(=O)N[C@H](C(=O)NCC(=O)N[C@@H](C(N)=O)[C@@H](C)O)[C@H](O)CC(N)=O)[C@@H](C)O)[C@@H](C)O)C(C)C)[C@@H](C)O)OC(=O)[C@@H](C)CCCN
Output line: 65

Input line: Tell us which Hemolytic activity value is on record for CCCCCCCCCCCCC[C@H](CC(=O)N[C@@H](C(=O)N[C@H](C)C(=O)N[C@@H](Cc1ccc(O)c([N+](=O)[O-])c1)C(=O)N[C@H](C(=O)N1C[C@H](O)C[C@H]1C(=O)N[C@@H](C(=O)N[C@H](C(=O)N1CC[C@H](O)[C@H]1C(=O)N[C@H](C(=O)NCC(=O)N[C@@H](C(N)=O)[C@@H](C)O)[C@H](O)CC(N)=O)[C@@H](C)O)[C@@H](C)O)C(C)C)[C@@H](C)O)OC(=O)[C@@H](C)CCCN
Output line: 100

====

Hemolytic activity values by entry
Species: Mus musculus
Assay: Ability to hemolyze ICR mouse RBCs at 1 mg/mL using microtiter red blood cell hemolysis assay.
Numbered stars: 1 amine (or outer) side, 2 acyl side, 3 side chain; on linkers, the order of the positions; unused ones are H or OH. Bridge positions count the residues as written; N and C are the ends. Square brackets hold non-standard residues; d marks the D form. Peptide text beside a SMILES is read from it. X3 = O=C(O)CCC(=O)Nc1cc(C[C@H](N[*:1])C(=O)[*:2])ccc1O; Gln(3R-OH) = NC(=O)C[C@@H](O)[C@H](N)C(=O)O; X1 = CCCCCCCCCCCCC[C@H](CC(=O)[*:1])O[*:2]; Pro(3S-OH) = O=C(O)[C@H]1NCC[C@@H]1O; Hyp = O=C(O)[C@@H]1C[C@@H](O)CN1; Orn = NCCC[C@H](N)C(=O)O
// units = %; emit number, no label

Answered cases to consult:
compound	metric_name	measurement
CCCCCCCCCCCCC[C@@H]1CC(=O)N[C@@H]([C@@H](C)O)C(=O)N[C@@H](C)C(=O)N[C@@H](Cc2ccc(O)c(NC(=O)CCC(=O)O)c2)C(=O)N[C@@H](C(C)C)C(=O)N2C[C@H](O)C[C@H]2C(=O)N[C@@H]([C@@H](C)O)C(=O)N[C@@H]([C@@H](C)O)C(=O)N2CC[C@H](O)[C@H]2C(=O)N[C@@H]([C@H](O)CC(N)=O)C(=O)NCC(=O)N[C@@H]([C@@H](C)O)C(=O)N[C@@H](CCCN)C(=O)O1 (TA[X3]V[Hyp]TT[Pro(3S-OH)][Gln(3R-OH)]GT[Orn]; linker N-C via X1)	Hemolytic activity	79
CCCCCCCCCCCCC[C@H](CC(=O)N[C@@H](C(=O)N[C@H](C)C(=O)N[C@@H](Cc1ccc(OCC(=O)N(C)C)cc1)C(=O)N[C@H](C(=O)N1C[C@H](O)C[C@H]1C(=O)N[C@@H](C(=O)N[C@H](C(=O)N1CC[C@H](O)[C@H]1C(=O)N[C@H](C(=O)NCC(=O)N[C@@H](C(N)=O)[C@@H](C)O)[C@H](O)CC(N)=O)[C@@H](C)O)[C@@H](C)O)C(C)C)[C@@H](C)O)OC(=O)[C@@H](C)CCCN	Hemolytic activity	85
CCCCCCCCCCCCC[C@H](CC(=O)N[C@@H](C(=O)N[C@H](C)C(=O)N[C@@H](Cc1ccc(O)c(NC(=O)C[C@H](N)C(=O)O)c1)C(=O)N[C@H](C(=O)N1C[C@H](O)C[C@H]1C(=O)N[C@@H](C(=O)N[C@H](C(=O)N1CC[C@H](O)[C@H]1C(=O)N[C@H](C(=O)NCC(=O)N[C@@H](C(N)=O)[C@@H](C)O)[C@H](O)CC(N)=O)[C@@H](C)O)[C@@H](C)O)C(C)C)[C@@H](C)O)OC(=O)[C@@H](C)CCCN	Hemolytic activity	75

Input line: Tell us which Hemolytic activity value is on record for CCCCCCCCCCCCC[C@H](CC(=O)N[C@@H](C(=O)N[C@H](C)C(=O)N[C@@H](Cc1ccc(OCC(=O)O)cc1)C(=O)N[C@H](C(=O)N1C[C@H](O)C[C@H]1C(=O)N[C@@H](C(=O)N[C@H](C(=O)N1CC[C@H](O)[C@H]1C(=O)N[C@H](C(=O)NCC(=O)N[C@@H](C(N)=O)[C@@H](C)O)[C@H](O)CC(N)=O)[C@@H](C)O)[C@@H](C)O)C(C)C)[C@@H](C)O)OC(=O)[C@@H](C)CCCN
Output line: 76

====

Tested on: Candida albicans
Assay: In vitro antifungal activity against Candida albicans 13004 by broth microdilution method
Type: functional
Numbered stars: 1 amine (or outer) side, 2 acyl side, 3 side chain; on linkers, the order of the positions; unused ones are H or OH. Bridge positions count the residues as written; N and C are the ends. Square brackets hold non-standard residues; d marks the D form. Peptide text beside a SMILES is read from it. ξ: configuration not given here. X2 = O=C(CCC(=O)N1CCNCC1)Nc1cc(C[C@H](N[*:1])C(=O)[*:2])ccc1O; Gln(3R-OH) = NC(=O)C[C@@H](O)[C@H](N)C(=O)O; X1 = CCCCCCCCCCCCC[C@H](CC(=O)[*:1])O[*:2]; Pro(3S-OH) = O=C(O)[C@H]1NCC[C@@H]1O; Hyp = O=C(O)[C@@H]1C[C@@H](O)CN1; Orn = NCCC[C@H](N)C(=O)O; ξA = CC(N)C(=O)O
metric_name: MIC (µg/mL)
// units = µg/mL; emit number, no label

Input line: Tell us which MIC value is on record for CCCCCCCCCCCCC[C@H](CC(=O)N[C@H](C(=O)N[C@@H](C)C(=O)N[C@@H](Cc1ccc(OCC(=O)O)c(NC(=O)CCN)c1)C(=O)N[C@H](C(=O)N1C[C@H](O)C[C@H]1C(=O)N[C@@H](C(=O)N[C@H](C(=O)N1CC[C@H](O)[C@H]1C(=O)N[C@H](C(=O)NCC(=O)N[C@H](C(N)=O)[C@@H](C)O)[C@H](O)CC(N)=O)[C@@H](C)O)[C@@H](C)O)C(C)C)[C@@H](C)O)OC(=O)[C@@H](C)CCCN.Cl
Output line: 0.5

Input line: Tell us which MIC value is on record for CCCCCCCCCCCCC[C@@H]1CC(=O)N[C@@H]([C@@H](C)O)C(=O)NC(C)C(=O)N[C@@H](Cc2ccc(O)c(NC(=O)CCC(=O)N3CCNCC3)c2)C(=O)N[C@@H](C(C)C)C(=O)N2C[C@H](O)C[C@H]2C(=O)N[C@@H]([C@@H](C)O)C(=O)N[C@@H]([C@@H](C)O)C(=O)N2CC[C@H](O)[C@H]2C(=O)N[C@@H]([C@H](O)CC(N)=O)C(=O)NCC(=O)N[C@@H]([C@@H](C)O)C(=O)N[C@@H](CCCN)C(=O)O1 (stereo partly drawn) (T[ξA][X2]V[Hyp]TT[Pro(3S-OH)][Gln(3R-OH)]GT[Orn]; linker N-C via X1)
Output line: 1

Input line: Tell us which MIC value is on record for CCCCCCCCCCCCC[C@H](CC(=O)N[C@@H](C(=O)N[C@H](C)C(=O)N[C@@H](Cc1ccc(OCC(=O)NCCCn2ccnc2)cc1)C(=O)N[C@H](C(=O)N1C[C@H](O)C[C@H]1C(=O)N[C@@H](C(=O)N[C@H](C(=O)N1CC[C@H](O)[C@H]1C(=O)N[C@H](C(=O)NCC(=O)N[C@@H](C(N)=O)[C@@H](C)O)[C@H](O)CC(N)=O)[C@@H](C)O)[C@@H](C)O)C(C)C)[C@@H](C)O)OC(=O)[C@@H](C)CCCN.Cl
Output line: 2

// provenance: ChEMBL document CHEMBL1134139
